Where do the numbers come from? From PubChem BioAssay.

# MEASUREMENT_PROTOCOL: basal MM1S mitochondrial membrane potential changes, profiling panel, cell-based, JC-1 fluorescence, 24 h, 100 nL compound (AID 1170); further: test concentration not given here
# SETTINGS: higher = more signal
The threshold is inclusive: z-score of exactly -0.5 counts as true (1); values below receive false (0).

Query: Does the molecule O=C(c1ccccc1)N1Cc2ccccc2C[C@@]2(COC(c3ccc(OCCCO)cc3)=N2)C1=O have recorded z-score that is -0.5 or more?
Result: true (1)

Query: For this molecule, is measured z-score -0.5 or higher? COc1ccc([C@H]2OC[C@@H]3C[C@@H](Cc4ccccc4)C(=O)N32)cc1
Result: true (1)

Query: Given the entry CC(C)[Si]1(C(C)C)O[C@@H](c2ccccc2)c2cc(-c3ccc(-c4ccc(Cl)c(Cl)c4)o3)nc(-c3ccccc3)c21 , answer whether its z-score meets or surpasses -0.5.
Result: false (0)

Query: Kindly determine if z-score recorded for C=CCOC(=O)[C@@H]1[C@H]2C(=O)O[C@H](c3ccccc3)[C@H](c3ccccc3)N2[C@H](c2ccc(OCCOC(=O)[C@@H]3C[C@@H]4C(=O)NCC(=O)N4[C@@H]3c3ccc(O)cc3)cc2)[C@@]12C(=O)Nc1ccc(I)cc12 is above or exactly -0.5.
Result: false (0)

Query: Does the molecule COCCCNC(=O)[C@@H]1c2ccccc2C(=O)N(Cc2ccccc2Cl)[C@H]1c1ccc(CO)cc1 have recorded z-score that is -0.5 or more?
Result: true (1)

Query: Given the entry CC(C)C(=C=CC[C@@H](O)c1ccc(OCCO)cc1)C[C@@H](O)COCc1ccccc1 , answer whether its z-score meets or surpasses -0.5.
Result: false (0)

Query: # bool: z-score of CCCC[C@@H]1C[C@H]1[C@@H](NC(=O)c1ccco1)c1ccccc1C(F)(F)F >= -0.5
Result: true (1)

Query: Given COCCOC(=O)N1C(=O)[C@@]2(c3cc(C#CCC(C(=O)OC)C(=O)OC)ccc31)[C@H](c1ccccc1OCCO)N1[C@H](c3ccccc3)[C@H](c3ccccc3)OC(=O)[C@H]1[C@@H]2C(=O)NC[C@H](O)c1ccccc1 , state whether its z-score is at least -0.5.
Result: false (0)

Query: Quick check: does O=C1N[C@@H](Cc2ccccc2)C(=O)N2[C@@H]1C[C@@H](C(=O)O)[C@H]2c1cccc(OCCO)c1 have z-score greater than or equal to -0.5?
Result: false (0)

Query: Hi, just wondering whether C=C(CCCC)/C(=C/C[C@@H](OC(C)=O)c1ccc(OCCO)cc1)c1cnc2ccccc2c1 shows z-score of -0.5 or higher.
Result: false (0)

Query: I'd appreciate it if you could say whether C#C[C@H](O[Si](C#Cc1ccc(Oc2ccccc2)cc1)(C(C)C)C(C)C)c1ccccc1 has z-score at least equal to -0.5.
Result: false (0)

Query: Assess whether reported z-score for CC(=O)n1cc(C(O)C2C=CC3C(=O)N(c4ccccc4)C(=O)C3N2Nc2ccc([N+](=O)[O-])cc2)c2ccccc21 (centres undefined) sits at -0.5 or higher.
Result: true (1)

Query: Is reported z-score greater than or equal to -0.5 here: CCCC[C@H]1OB(O)C[C@H]2C1=C(COC)C[C@H]1C(=O)N(C)C(=O)[C@H]12
Result: true (1)

Query: Can COCCOC(=O)N1C(=O)[C@@]2(c3cc(C#CCC(C(=O)OC)C(=O)OC)ccc31)[C@H](c1ccccc1OCCO)N1[C@H](c3ccccc3)[C@H](c3ccccc3)OC(=O)[C@H]1[C@@H]2C(=O)N1CCN(c2ncccn2)CC1 be said to have z-score at or above -0.5?
Result: false (0)

* * *

# MEASUREMENT_PROTOCOL: adipocyte viability effects, profiling panel, cell-based, 3T3-L1 adipocytes, calcein-AM fluorescence, 48 h, basal (AID 1163); further: test concentration not given here
# SETTINGS: 3T3-L1 adipocytes viability, higher = more signal
MEASUREMENT_NAME: z-score

Query: Respond only with z-score recorded for COCCOC(=O)N1C(=O)[C@@]2(c3ccccc31)[C@H](C(=O)N1CCc3cc(OC)c(OC)cc3C1)[C@H]1C(=O)O[C@H](c3ccccc3)[C@H](c3ccccc3)N1[C@@H]2c1ccc(OCCO)cc1
Result: 1.48

Query: Indicate its recorded z-score; the compound in question is CCCC#C[Si](O[C@H](CC)c1cn(Cc2cccc(Cl)c2)nn1)(C(C)C)C(C)C
Result: -1.07

Query: Tell me z-score reported for O=C1NC(=O)C2C1C=CC(C(O)c1cc(C(F)(F)F)cc(C(F)(F)F)c1)N2Nc1ccccn1 (configuration not stated)
Result: -0.485

Query: Specify measured z-score for C=C(COC)/C(=C/C[C@@H](OC(=O)c1ccncc1)c1ccc(CO)o1)c1cc(C(=O)OC)ccc1OC .
Result: -0.766

Query: Report measured z-score; entry is COCCOC(=O)N1C(=O)[C@@]2(c3ccccc31)[C@H](c1ccccc1OCCO)N1[C@H](c3ccccc3)[C@H](c3ccccc3)OC(=O)[C@H]1[C@@H]2C(=O)N1CCN(c2ncccn2)CC1
Result: -0.678

Query: Recall and state the measured z-score for CNS(=O)(=O)c1ccc(C)cc1 .
Result: 0.451

Query: Indicate its recorded z-score; the compound in question is Cc1ccc(N2C(=O)c3ccccc3[C@@H](C(=O)NC3CC3)[C@@H]2c2ccc(CO)cc2)nc1
Result: 0.516

* * *

# System: Neuregulin-1 EGF-like domain
# MEASUREMENT_PROTOCOL: binders of neuregulin-1 EGF-like domain, primary screen, biochemical, small-molecule microarray, 635 nm fluorescence (AID 1081);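 further: binding of the protein to compounds printed on small-molecule microarray slides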
# SETTINGS: small-molecule microarray binding, higher = more signal
MEASUREMENT_NAME: composite z-score
// return just the number, without any unit appended

Query: Indicate its recorded composite z-score; the molecule in question is O=C1O[C@H](c2ccccc2)[C@H](c2ccccc2)N2[C@H]1[C@@H](C(=O)N1CCCCCCC1)[C@]1(C(=O)Nc3ccc(C#CCCO)cc31)[C@H]2c1ccccc1OCCO
Result: 1.37

Query: Report composite z-score, nothing else, for this molecule: C=C[C@H](CO[Si](CC)(CC)CC)N(Cc1ccc(OC(C)=O)c(OC)c1)S(=O)(=O)c1ccc(Br)cc1
Result: 1.05

Query: Let me know recorded composite z-score for COc1ccc(C#Cc2ccc3c(c2)[C@]2(C(=O)N3)[C@H](c3ccccc3OCCO)N3[C@H](c4ccccc4)[C@H](c4ccccc4)OC(=O)[C@H]3[C@@H]2C(=O)Nc2nc3ccccc3s2)cc1 , thanks.
Result: 1.17

Query: Consider the molecule C=CCNC(=O)[C@@H]1[C@H]2C(=O)O[C@H](c3ccccc3)[C@H](c3ccccc3)N2[C@H](c2ccccc2OCCO)[C@@]12C(=O)N(C(=O)OCCOC)c1ccccc12 . State its measured composite z-score.
Result: 1.29

Query: For the molecule CC(C)[Si]1(C(C)C)O[C@@H](c2ccccc2)c2cc(-c3ccc(-c4ccc(Cl)c(Cl)c4)o3)nc(-c3ccccc3)c21 , give its reported composite z-score.
Result: -0.39

Query: Read the entry COc1cc2c(cc1O)C(C1CC1)N(Cc1sc3ccccc3c1Cl)CC2 (stereo not drawn) and write its reported composite z-score.
Result: 1.23

Query: Using known records, supply composite z-score for COCCOC(=O)N1C(=O)[C@@]2(c3ccccc31)[C@H](C(=O)N1CCc3cc(OC)c(OC)cc3C1)[C@H]1C(=O)O[C@H](c3ccccc3)[C@H](c3ccccc3)N1[C@@H]2c1ccc(OCCO)cc1
Result: 1.21

Query: Provide measured composite z-score value, entry: C=CCN1C(=O)[C@@]2(CC=C)N=C(c3ccc(OCCCO)cc3)O[C@H]2c2ccccc21
Result: 1.37

Query: Look up composite z-score of O=C1C2C=CC(C(O)c3cc(C(F)(F)F)cc(C(F)(F)F)c3)N(n3cnnc3)C2C(=O)N1Cc1ccccc1 (stereo not drawn) and report it.
Result: -0.159

Query: Give a short answer stating reported composite z-score for C=CCOC(=O)[C@H]1[C@@H]2C(=O)O[C@@H](c3ccccc3)[C@@H](c3ccccc3)N2[C@@H](c2ccc(OCCOC(=O)[C@H]3C[C@H]4C(=O)N[C@@H](CCCCNC(C)=O)C(=O)N4[C@H]3c3cccc(OCCO)c3)cc2)[C@]12C(=O)Nc1ccccc12 .
Result: 1.11

Query: Could you please provide reported composite z-score for O=C1NC(=O)C2C1C=CC(C(O)c1cc(C(F)(F)F)cc(C(F)(F)F)c1)N2Nc1ccccn1 (stereo not drawn) ? Thanks!
Result: 1.03

Query: Quote composite z-score reported for O=C1C[C@]2(c3ccc([N+](=O)[O-])cc3)C(=O)N(CC(F)(F)F)c3cc(CO)ccc3[C@H]2N1C1CCCCC1 please.
Result: -1.5

Query: Tell me composite z-score reported for C=CCNC(=O)[C@@H]1[C@H]2C(=O)O[C@H](c3ccccc3)[C@H](c3ccccc3)N2[C@H](c2ccc(O)cc2)[C@@]12C(=O)N(C(=O)OCCOC)c1ccc(C#CCNC(N)=O)cc12
Result: 0.955

Query: Give a short answer stating reported composite z-score for CCOC(=O)[C@H]1C/C=C/C[C@H](C(=O)OCC)C(=O)O[C@H]2[C@@H](OC)O[C@H](CO)[C@@H](OC(=O)c3c(OC)cccc3OC)[C@@H]2OC1=O .
Result: 1.02

Query: Fill in composite z-score for record COc1ccc([Si](C)(C)[C@@H]2[C@@H](CC(=O)N3CCC[C@H]3CO)O[C@]3(C(=O)N(c4ccccc4)c4ccccc43)[C@H]2C)cc1
Result: 1.11

Query: Identify the reported composite z-score for the following entry. CC(=O)NCCCC[C@@H]1NC(=O)[C@H]2C[C@@H](C(=O)NCCCCCCNC(=O)CS)[C@@H](c3ccc(O)cc3)N2C1=O
Result: 1.47

Query: Look up and state reported composite z-score for CCCC[C@@H]1C[C@H]1[C@@H](NC(=O)c1ccco1)c1ccccc1C(F)(F)F
Result: -0.226

Query: Input CC1CC/C=C\[C@H]2OC34C=CCN(C(C)(C)C)C(=O)[C@H]3N(C(C)CO)C(=O)[C@@H]4C2C(=O)O1 (stereo partly drawn) , output reported composite z-score.
Result: 0.061

Query: Identify the reported composite z-score for the following entry. O=C1NC(=O)C2C1C=CC(C(O)c1cccs1)N2Nc1ccc(Cl)cc1Cl (stereo not drawn)
Result: 1.14

Query: Identify the reported composite z-score for the following entry. C=C(CCCC)C(=O)CC[C@@H](OC(=O)c1ccccc1-c1ccccc1C(=O)O)c1ccc(OCCO)cc1
Result: 0.562

Query: Write down composite z-score measured for item CC(CO)N1C(=O)[C@@H]2C3C(=O)OCCC/C=C\[C@H]3OC23C=CCN(C(C)(C)C)C(=O)[C@@H]13 (stereo partly drawn)
Result: 1.17

Query: # return recorded composite z-score for entry CC(C)N1C(=O)c2ccccc2[C@](C)(C(=O)NCCN2CCOCC2)[C@@H]1c1ccc(CO)cc1
Result: 0.728

Query: Input COc1ccc(-c2cc3c(c(-c4ccc(Oc5ccccc5)cc4)n2)[Si](C(C)C)(C(C)C)OC3)cn1 , output reported composite z-score.
Result: -0.502

Query: Input CCOC(=O)C1=CC[C@@H](c2ccccc2)N(S(=O)(=O)c2ccc(C)cc2)[C@H]1c1ccccc1C , output reported composite z-score.
Result: 0.714

Query: Tell me its composite z-score given CN(C)CCCCCCNC(=O)[C@H]1C[C@H]2C(=O)N[C@@H](CCCCN)C(=O)N2[C@H]1c1cccc(OCCO)c1 as the entry.
Result: 1.55

Query: Given COC(=O)C(CC#Cc1ccc2c(c1)[C@]1(C(=O)N2)[C@H](c2ccc(OCCO)cc2)N2[C@H](c3ccccc3)[C@H](c3ccccc3)OC(=O)[C@H]2[C@@H]1C(=O)Nc1nc2ccccc2s1)C(=O)OC , respond with its composite z-score.
Result: 1.19

Query: State, in one line, measured composite z-score of CCCC[C@@H]1C[C@H]1[C@@H](NC(=O)C(C)(C)C)c1ccc(C(F)(F)F)cc1
Result: 0.55

Query: Annotate the molecule COc1ccc(/C=C/C=O)cc1 with its measured composite z-score.
Result: -0.562
